# system-under-test: Luciferin 4-monooxygenase (Photinus pyralis) (UniProt P08659)
# Sequence (P08659 whole entry, looked up): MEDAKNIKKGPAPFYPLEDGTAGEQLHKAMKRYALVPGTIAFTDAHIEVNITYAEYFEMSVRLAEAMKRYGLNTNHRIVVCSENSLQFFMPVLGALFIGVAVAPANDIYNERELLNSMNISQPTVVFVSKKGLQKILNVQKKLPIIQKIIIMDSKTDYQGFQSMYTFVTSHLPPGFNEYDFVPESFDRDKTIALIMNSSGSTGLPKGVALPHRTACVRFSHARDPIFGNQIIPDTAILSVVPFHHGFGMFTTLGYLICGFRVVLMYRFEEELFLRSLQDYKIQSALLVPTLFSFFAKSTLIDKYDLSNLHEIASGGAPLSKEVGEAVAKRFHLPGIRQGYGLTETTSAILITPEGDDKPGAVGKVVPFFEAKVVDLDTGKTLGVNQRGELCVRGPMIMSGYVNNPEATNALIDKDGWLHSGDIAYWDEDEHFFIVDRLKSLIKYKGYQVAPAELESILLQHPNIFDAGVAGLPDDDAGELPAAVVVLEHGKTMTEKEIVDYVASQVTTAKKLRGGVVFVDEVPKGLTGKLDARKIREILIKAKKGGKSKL
# protocol-text: firefly luciferase enzyme inhibitors, primary screen, biochemical, luminescence, purified enzyme, 2006 set (AID 1141);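 also: cell-free assay with purified firefly luciferase at 100 ng per well in PBS; test concentration not given here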
# cond: SteadyGlo luminescence, 30 min, higher = more signal, called active from +8 up or from −8 down
// values below are reported z-score
attribute-measured: z-score

compound	observed-result
COc1ccc(C(O)C2C=CC3C(=O)N(c4ccccc4)C(=O)C3N2Nc2ccccc2F)cc1OCc1ccccc1 (stereo unspecified)	-0.237
COC(=O)C(CC#Cc1ccc2c(c1)[C@]1(C(=O)N2)[C@H](c2ccc(O)cc2)N2[C@H](c3ccccc3)[C@H](c3ccccc3)OC(=O)[C@H]2[C@@H]1C(=O)Nc1nc2ccccc2s1)C(=O)OC	-1.63
CN(C)CCCNC(=O)[C@@]1(c2ccc([N+](=O)[O-])cc2)CC(=O)N(C2CCCCC2)[C@@H]1c1ccc(CO)cc1I	-0.907
COCCCNC(=O)[C@@]1(Cc2ccccc2N=[N+]=[N-])N=C(c2ccc(OCCCO)cc2)O[C@H]1c1ccccc1N=[N+]=[N-]	-3.37
Cc1ccc(C(C)CC(O)C2C=CC3C(=O)N(C)C(=O)C3N2NC(=O)OC(C)(C)C)o1 (stereo unspecified)	-1.3
CC(C)C[C@@H]1NC(=O)[C@@H]2C[C@H](C(=O)NCCCCCN)[C@H](c3cccc(OCCO)c3)N2C1=O	-1.21
CN(C)CCCNC(=O)[C@@]1(c2ccc([N+](=O)[O-])cc2)CC(=O)N(C2CCCCC2)[C@@H]1c1ccc(CO)cc1	-0.0244
COc1ccc(CCN2C(=O)[C@@]3(c4ccc([N+](=O)[O-])cc4)CC(=O)N(C4CCCCC4)[C@@H]3c3ccc(CO)cc32)cc1	0.3
CC(C)C(CO)N1C(=O)[C@@H]2[C@H]3C(=O)OCC=C[C@H]3OC23C=CCN(C(C)C)C(=O)[C@@H]13 (stereo partly specified)	0.316
COc1cc(CO)cc(I)c1O[C@H]1C=C(C(=O)NCCO)C[C@@H](N(CCN2CCOCC2)C(=O)C2CCOC2)[C@@H]1O (stereo partly specified)	-1.13
COCC(=C=CC[C@@H](O)c1ccccc1OCCO)C[C@@H](O)c1cc(Cl)cc(Cl)c1O	-1.02
CC(C)(C)C(=O)N[C@@H](c1ccc(Cl)cc1)[C@]1(C)C[C@H]1C1CCCCC1	0.542
CC(C)(C)OC(=O)CC[C@]1(C(=O)NCC(O)CO)COC(c2ccc(OCCCO)cc2)=N1 (stereo partly specified)	0.438
C=CC[C@]1(C(=O)N2CCCCC2)N=C(c2ccc(OCCCO)cc2)O[C@H]1c1ccccc1	-0.728
CN1C(=O)C2C=CC(C(O)C3CCCCC3)N(Nc3ccc([N+](=O)[O-])cc3[N+](=O)[O-])C2C1=O (stereo unspecified)	0.799
N#Cc1ccc(NN2C(C(O)c3c(F)cccc3Cl)C=CC3C(=O)N(c4ccccc4)C(=O)C32)cc1 (stereo unspecified)	-0.671
O=C1NCC(=O)N2[C@@H]1C[C@@H](C(=O)O)[C@H]2c1cccc(OCCO)c1	-0.707
COC(=O)[C@@]1(Cc2ccc(OC)cc2)[C@H]2c3cc(C(=O)N4CCCC4)n(Cc4ccccc4)c3C[C@H]2CN1C(=O)c1ccccc1	2.01
C#CCNC(=O)[C@H](Cc1ccccc1)NC(=O)CCC(=O)O	0.0223
COc1ccc(CCNC(=O)[C@@]2(Sc3ccc(C)cc3)CC(=O)N(C3CCCCC3)[C@@H]2c2ccc(CO)cc2I)cc1	0.645
C=CCOC(=O)[C@@H]1[C@H]2C(=O)O[C@H](c3ccccc3)[C@H](c3ccccc3)N2[C@H](c2ccc(OCCOC(=O)[C@@H]3C[C@@H]4C(=O)N5CCC[C@H]5C(=O)N4[C@@H]3c3ccc(O)cc3)cc2)[C@@]12C(=O)Nc1ccc(I)cc12	-0.291
COCCOC(=O)N1C(=O)[C@@]2(c3cc(C#CC4=CCCCC4)ccc31)[C@H](c1ccc(O)cc1)N1[C@H](c3ccccc3)[C@H](c3ccccc3)OC(=O)[C@H]1[C@@H]2C(N)=O	-1.37
C=CC[C@@]1(C(=O)N(C)C)N=C(c2ccc(OCCCO)cc2)O[C@@H]1c1ccccc1N=[N+]=[N-]	-9.07
CN1C(=O)C2C=CC(C(O)Cc3ccccc3)N(Nc3ccccc3)C2C1=O (stereo unspecified)	-0.492
COc1ccc([C@H]2C[C@H]3C(Br)=C[C@@H]2C(=O)[C@]32CO2)cc1	-0.388
COc1ccc(C(=O)O[C@H]2CC[C@]3(C)C4=C(CCC3C2(C)C)[C@]2(C)CC[C@H]([C@H](C)CCCC(C)C)[C@@]2(C)CC4)cc1 (stereo partly specified)	-0.384

Value source: PubChem BioAssay
